Recorded values, source patent US20250082630A1.

MEASURED TARGET: hERG (Homo sapiens (Human), UniProt Q12809)
Sequence (Q12809 whole entry): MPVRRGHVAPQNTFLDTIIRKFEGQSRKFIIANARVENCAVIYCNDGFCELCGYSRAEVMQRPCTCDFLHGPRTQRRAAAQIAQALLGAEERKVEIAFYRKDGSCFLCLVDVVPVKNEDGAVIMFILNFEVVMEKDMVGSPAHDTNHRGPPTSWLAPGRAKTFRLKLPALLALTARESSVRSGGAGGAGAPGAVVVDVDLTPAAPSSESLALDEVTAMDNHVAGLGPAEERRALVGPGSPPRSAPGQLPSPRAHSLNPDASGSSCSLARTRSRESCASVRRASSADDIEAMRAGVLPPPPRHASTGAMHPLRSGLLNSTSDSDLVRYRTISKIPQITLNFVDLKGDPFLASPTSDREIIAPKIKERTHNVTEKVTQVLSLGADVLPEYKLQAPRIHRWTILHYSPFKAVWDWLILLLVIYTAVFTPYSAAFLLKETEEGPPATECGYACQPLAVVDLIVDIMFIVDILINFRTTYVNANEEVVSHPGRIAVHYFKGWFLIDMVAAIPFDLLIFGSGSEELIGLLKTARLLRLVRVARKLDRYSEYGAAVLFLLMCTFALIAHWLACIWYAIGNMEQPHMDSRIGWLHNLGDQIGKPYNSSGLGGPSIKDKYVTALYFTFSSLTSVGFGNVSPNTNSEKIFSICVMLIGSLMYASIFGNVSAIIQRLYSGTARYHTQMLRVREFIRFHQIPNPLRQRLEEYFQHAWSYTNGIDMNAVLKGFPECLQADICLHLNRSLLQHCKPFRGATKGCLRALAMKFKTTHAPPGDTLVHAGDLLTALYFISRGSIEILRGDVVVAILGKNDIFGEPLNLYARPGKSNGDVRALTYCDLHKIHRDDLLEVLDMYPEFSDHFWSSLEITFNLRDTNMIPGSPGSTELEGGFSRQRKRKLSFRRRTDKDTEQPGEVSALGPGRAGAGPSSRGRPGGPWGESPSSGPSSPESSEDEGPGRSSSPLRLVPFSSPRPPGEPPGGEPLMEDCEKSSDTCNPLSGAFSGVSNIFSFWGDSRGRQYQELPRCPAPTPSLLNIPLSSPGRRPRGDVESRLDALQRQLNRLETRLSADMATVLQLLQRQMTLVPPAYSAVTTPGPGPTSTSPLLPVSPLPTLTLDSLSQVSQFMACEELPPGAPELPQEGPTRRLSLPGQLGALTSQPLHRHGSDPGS
TEST NAME: hERG IC50
pIC50: −log10 of the molar value.

| COMPOUND | pIC50 |
| --- | --- |
| CNC(=O)c1ccc(N2CCN(Cc3ccc4ncc(=O)[nH]c4c3F)CC2)c(Cl)n1 | 4.54 |
| CNC(=O)c1ccc(N2CCN(Cc3ccc4nc(C)c(=O)[nH]c4c3Cl)CC2)c(C)n1 | 4.85 |

###

A collection of compounds and their measured efflux ratio at 90 min
Test system: MDR1 and BCRP
TEST NAME: In vitro human transporter efflux (MDCK-MDR1-BCRP)
CONDITION INFO: human, pH 7.4

| COMPOUND | efflux ratio at 90 min |
| --- | --- |
| CCc1nc2ccc(CN3CCN(c4ccc(C(=O)NC)nc4)CC3)c(F)c2[nH]c1=O [Example 29] | 0.7 |
| CNC(=O)c1ccc(N2CCN(Cc3ccc4nc(OC)c(=O)[nH]c4c3F)CC2)c(C)n1 [Example 40] | 2 |
| CNC(=O)c1ccc(N2CCN(Cc3ccc4nc(C)c(=O)[nH]c4c3C)CC2)c(Cl)n1 [Example 3] | 1.3 |
| CNC(=O)c1ccc(N2CCN(Cc3ccc4nc(C(F)(F)F)c(=O)[nH]c4c3F)CC2)c(F)n1 [Example 48] | 8.8 |
| CNC(=O)c1ccc(N2CCN(Cc3ccc4nc(C)c(=O)[nH]c4c3F)CC2)c(Cl)n1 [Example 30] | 1.8 |
| CNC(=O)c1ccc(N2CCN(Cc3ccc4nc(OC)c(=O)[nH]c4c3F)CC2)c(Cl)n1 [Example 41] | 2.4 |

###

So I've got IC50 readings for PARP2 (Homo sapiens (Human), UniProt Q9UGN5), take a look.

| MOLECULE | IC50 |
| --- | --- |
| Cc1nc(C(N)=O)ccc1N1CCN(Cc2ccc3nc(C)c(=O)[nH]c3c2F)CC1 | > 100 µM |
| CNC(=O)c1ccc(N2CCN(Cc3ccc4nc(C(C)(F)F)c(=O)[nH]c4c3F)CC2)c(C)n1 | 40 µM |
| CNC(=O)c1ccc(N2CCN(Cc3ccc4nc(OC)c(=O)[nH]c4c3F)CC2)c(F)n1 | > 100 µM |
| CNC(=O)c1ccc(N2CCN(Cc3ccc4nc(C)c(=O)[nH]c4c3F)CC2)c(Cl)n1 | > 100 µM |
| CNC(=O)c1ccc(N2CCN(Cc3ccc4nc(C5CC5)c(=O)[nH]c4c3F)CC2)c(F)n1 | > 100 µM |
| CNC(=O)c1ccc(N2CCN(Cc3ccc4nc(C(C)F)c(=O)[nH]c4c3F)CC2)c(C)n1 (single isomer, unassigned) [Example 15] | > 100 µM |
| CCc1nc2ccc(CN3CCN(c4ccc(C(N)=O)nc4)CC3)c(F)c2[nH]c1=O | > 100 µM |
| CCc1nc2ccc(CN3CCN(c4ccc(C(=O)NC)nc4)CC3)c(F)c2[nH]c1=O | > 100 µM |
| CNC(=O)c1ccc(N2CCN(Cc3ccc4nc([C@H](C)F)c(=O)[nH]c4c3F)CC2)c(F)n1 (single isomer, unassigned) | > 100 µM |
| Cc1nc(C(N)=O)ccc1N1CCN(Cc2ccc3nc(C)c(=O)[nH]c3c2C)CC1 | 58 µM |
| Cc1nc2ccc(CN3CCN(c4ccc(C(N)=O)nc4F)CC3)c(C)c2[nH]c1=O | > 63 µM |
| CNC(=O)c1ccc(N2CCN(Cc3ccc4nc(C(F)(F)F)c(=O)[nH]c4c3F)CC2)cn1 | 35 µM |
| CNC(=O)c1ccc(N2CCN(Cc3ccc4nc(C(C)C)c(=O)[nH]c4c3F)CC2)c(C)n1 | 3.8 µM |
| CNC(=O)c1ccc(N2CCN(Cc3ccc4nc(C)c(=O)[nH]c4c3F)CC2)c(C)n1 | > 100 µM |
| CNC(=O)c1ccc(N2CCN(Cc3ccc4nc(C(F)(F)F)c(=O)[nH]c4c3F)CC2)c(Cl)n1 | 11 µM |
| CCc1nc2ccc(CN3CCN(c4ccc(C(N)=O)nc4C)CC3)c(F)c2[nH]c1=O | 88 µM |

###

TEST NAME: Determination of Kpuu in rat
Assay type: in vivo, Han Wistar rats
CONDITION INFO: Han Wistar, rat, brain and plasma (unbound brain-to-plasma ratio), 2 µmols/kg/h, intravenous infusion
A collection of molecules and their measured Kp uu at 4 h

| MOLECULE | Kp uu at 4 h |
| --- | --- |
| CNC(=O)c1ccc(N2CCN(Cc3ccc4nc(C)c(=O)[nH]c4c3C)CC2)c(F)n1 [Example 1] | 0.07 |
| CNC(=O)c1ccc(N2CCN(Cc3ccc4nc(C)c(=O)[nH]c4c3C)CC2)c(C)n1 [Example 4] | 0.13 |
| CNC(=O)c1ccc(N2CCN(Cc3ccc4nc(C)c(=O)[nH]c4c3F)CC2)c(F)n1 [Example 20] | 0.27 |
| CCc1nc2ccc(CN3CCN(c4ccc(C(=O)NC)nc4)CC3)c(F)c2[nH]c1=O [Example 29] | 0.33 |
| CCc1nc2ccc(CN3CCN(c4ccc(C(=O)NC)nc4C)CC3)c(F)c2[nH]c1=O [Example 23] | 0.62 |

###

Tested on: MDR1 and BCRP
TEST NAME: In vitro human transporter efflux (MDCK-MDR1-BCRP)
CONDITION INFO: human, pH 7.4
A collection of molecules and their measured efflux ratio at 90 min

| MOLECULE | MEASURED TARGET | efflux ratio at 90 min |
| --- | --- | --- |
| CCc1nc2ccc(CN3CCN(c4ccc(C(=O)NC)nc4C(F)F)CC3)c(F)c2[nH]c1=O [Example 24] | MDR1 and BCRP | 1.1 |
| CCc1nc2ccc(CN3CCN(c4ccc(C(=O)NC)nc4F)CC3)c(Cl)c2[nH]c1=O [Example 9] | MDR1 and BCRP | 0.4 |
| CNC(=O)c1ccc(N2CCN(Cc3ccc4nc(C(C)(F)F)c(=O)[nH]c4c3F)CC2)c(C)n1 [Example 19] | MDR1 and BCRP | 2.4 |
| CCc1nc2ccc(CN3CCN(c4ccc(C(=O)NC)nc4C)CC3)c(F)c2[nH]c1=O [Example 23] | MDR1 and BCRP | 0.8 |

###

So I've got log10 IC50 readings for PARP1 (Homo sapiens (Human), UniProt P09874), take a look.
PROPERTY LABEL: log10 IC50 (log10 of the value in nM)

| MOLECULE | MEASURED TARGET | log10 IC50 |
| --- | --- | --- |
| CNC(=O)c1ccc(N2CCN(Cc3ccc4nc(C)c(=O)[nH]c4c3Cl)CC2)c(C)n1 | PARP1 (Homo sapiens (Human), UniProt P09874) | 0.70 |
| CNC(=O)c1ccc(N2CCN(Cc3ccc4ncc(=O)[nH]c4c3F)CC2)c(F)n1 | PARP1 (Homo sapiens (Human), UniProt P09874) | 1.34 |
| CNC(=O)c1ccc(N2CCN(Cc3ccc4nc(C)c(=O)[nH]c4c3F)CC2)c(C(F)F)n1 | PARP1 (Homo sapiens (Human), UniProt P09874) | 0.85 |
| CNC(=O)c1ccc(N2CCN(Cc3ccc4ncc(=O)[nH]c4c3F)CC2)cn1 | PARP1 (Homo sapiens (Human), UniProt P09874) | 2.22 |
| CCc1nc2ccc(CN3CCN(c4ccc(C(N)=O)nc4C)CC3)c(F)c2[nH]c1=O | PARP1 (Homo sapiens (Human), UniProt P09874) | 0.70 |
| Cc1nc(C(N)=O)ccc1N1CCN(Cc2ccc3nc(C)c(=O)[nH]c3c2C)CC1 | PARP1 (Homo sapiens (Human), UniProt P09874) | 0.78 |
| CNC(=O)c1ccc(N2CCN(Cc3ccc4nc(C(C)C)c(=O)[nH]c4c3F)CC2)c(F)n1 | PARP1 (Homo sapiens (Human), UniProt P09874) | 0.78 |
| CNC(=O)c1ccc(N2CCN(Cc3ccc4nc([C@H](C)F)c(=O)[nH]c4c3F)CC2)c(F)n1 (single isomer, unassigned) [Example 12] | PARP1 (Homo sapiens (Human), UniProt P09874) | 1.18 |

###

System: BRCA2 (−/−) DLD1 cells
TEST NAME: PARP proliferation assay (7 day compound dosing), BRCA2 (−/−) DLD1
Type: cell-based
CONDITION INFO: read-out: BRCA2 −/− DLD-1 prolif. 7 d IC50
pIC50: −log10 of the molar value.

| MOLECULE | pIC50 |
| --- | --- |
| CNC(=O)c1ccc(N2CCN(Cc3ccc4nc(C(C)F)c(=O)[nH]c4c3F)CC2)c(C)n1 (single isomer, unassigned) [Example 15] | 7.85 |
| CNC(=O)c1ccc(N2CCN(Cc3ccc4nc(C(C)F)c(=O)[nH]c4c3F)CC2)c(C)n1 (single isomer, unassigned) [Example 14] | 7.82 |
| CNC(=O)c1ccc(N2CCN(Cc3ccc4nc([C@H](C)F)c(=O)[nH]c4c3F)CC2)c(F)n1 (single isomer, unassigned) [Example 13] | 7.72 |
| CNC(=O)c1ccc(N2CCN(Cc3ccc4nc([C@H](C)F)c(=O)[nH]c4c3F)CC2)c(F)n1 (single isomer, unassigned) [Example 12] | 8.10 |
